Can you tell me DC50 for the items I'm about to list?
test_system: KRAS (G12D) (Homo sapiens, UniProt P01116, G12D)
Construct: in-cell western with KRAS G12D antibody after 24 h
Sequence (P01116 1-188 isoform P01116-2 G12D): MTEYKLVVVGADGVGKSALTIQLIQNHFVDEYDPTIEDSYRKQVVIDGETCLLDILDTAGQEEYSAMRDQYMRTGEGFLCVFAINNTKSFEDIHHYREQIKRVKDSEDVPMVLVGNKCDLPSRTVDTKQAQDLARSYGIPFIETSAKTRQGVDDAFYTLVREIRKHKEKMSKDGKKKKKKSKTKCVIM
assay_overview: KRAS (G12D) cellular degradation assay in AsPC-1 cells
Type: cell-based
recorded_conditions: 24 hours, antibody fluorescence (Odyssey CLX), DC50 half-maximal degradation concentration

# DC50 (compound: `CCn1nccc1-c1ccc([C@@H](NC(=O)[C@@H]2C[C@@H](O)CN2C(=O)[C@H](C(C)C)n2cc(-c3ccc(COc4c(-c5c(C)c(F)cc6[nH]ncc56)c(C5CC5)cc5c(N6C[C@@H]7C[C@H]6CN7)nc(O[C@H]6CC[C@H](OC)C6)nc45)cc3)nn2)[C@H](C)O)cc1` ) is < 10 nM

# DC50 (compound: CCn1nccc1-c1ccc([C@H](CO)NC(=O)[C@@H]2C[C@@H](O)CN2C(=O)[C@H](C(C)C)n2cc(-c3ccc(COc4c(-c5c(C)c(F)cc6[nH]ncc56)c(C5CC5(F)F)cc5c(N6C[C@@H]7C[C@H]6CN7)nc(OC[C@H](C)OC)nc45)cc3)nn2)cc1 (stereo partly shown) ) is 10 to 100 nM

# DC50 (compound: `CCn1nccc1-c1ccc([C@H](CO)NC(=O)[C@@H]2C[C@@H](O)CN2C(=O)[C@H](C(C)C)n2cc(-c3ccc(COc4c(-c5c(C)c(F)cc6[nH]ncc56)c(C5CC5)cc5c(N(C)C[C@@H]6CCCN6)nc(OC[C@H](C)OC)nc45)cc3)nn2)cc1` ) is < 10 nM

# DC50 (compound: `CCn1nccc1-c1ccc([C@@H](NC(=O)[C@@H]2C[C@@H](O)CN2C(=O)[C@H](C(C)C)n2cc(-c3ccc(COc4c(-c5c(C)c(F)cc6n[nH]cc56)c(C5CC5)cc5c(N6C[C@@H]7C[C@H]6CN7)nc(OC6CCOCC6)nc45)cc3)nn2)[C@H](C)O)c2c1CC2` ) is < 10 nM

* * *

Test system: AsPC-1 cells
assay_overview: AsPC-1 cell proliferation assay (CellTiter Glo)
Assay type: cell-based
recorded_conditions: Homo sapiens, ASPC1, 144 h, 6 days
metric: IC50

# IC50 (molecule: `CCn1nccc1-c1ccc([C@@H](NC(=O)[C@@H]2C[C@@H](O)CN2C(=O)[C@H](C(C)C)n2cc(-c3ccc(COc4c(-c5c(C)c(F)cc6[nH]ncc56)c(C5CC5)cc5c(N6C[C@@H]7C[C@H]6CN7)nc(OC6CCC7(CC6)COC7)nc45)cc3)nn2)[C@@H](C)O)cc1` ) is < 10 nM

# IC50 (molecule: `CCn1nccc1C12CC(CNC(=O)[C@@H]3C[C@@H](O)CN3C(=O)[C@H](C(C)C)n3cc(-c4ccc(COc5c(-c6c(C)c(F)cc7[nH]ncc67)c(C6CC6)cc6c(N7C[C@@H]8C[C@H]7CN8)nc(OC[C@H](C)OC)nc56)cc4)nn3)(C1)C2` ) is 10 to 100 nM

# IC50 (molecule: `CO[C@@H](C)COc1nc(N2C[C@@H]3C[C@H]2CN3)c2cc(C3CC3)c(-c3c(C)c(F)cc4[nH]ncc34)c(OCc3ccc(-c4cn([C@H](C(=O)N5C[C@H](O)C[C@H]5C(=O)N[C@H](C#Cc5scnc5C)CO)C(C)C)nn4)cc3)c2n1` ) is < 10 nM

# IC50 (molecule: `CO[C@@H](C)COc1nc(N2C[C@@H]3C[C@H]2CN3)c2cc(C3CC3)c(-c3c(C)c(F)cc4[nH]ncc34)c(OCc3ccc(-c4cn([C@H](C(=O)N5C[C@H](O)C[C@H]5C(=O)N[C@H](C#Cc5cccc6[nH]ncc56)CO)C(C)C)nn4)cc3)c2n1` ) is < 10 nM

# IC50 (molecule: `CO[C@H]1C[C@H](Oc2nc(N(C)[C@H]3CCNC3)c3cc(C4CC4)c(-c4c(C)c(F)cc5[nH]ncc45)c(OCc4ccc(-c5cn([C@H](C(=O)N6C[C@H](O)C[C@H]6C(=O)N[C@H](c6ccc(-c7scnc7C)c7c6CC7)[C@H](C)O)C(C)C)nn5)cc4)c3n2)C1` ) is < 10 nM

# IC50 (molecule: `CCn1nccc1-c1ccc([C@@H](NC(=O)[C@@H]2C[C@@H](O)CN2C(=O)[C@H](C(C)C)n2cc(-c3ccc(COc4c(-c5c(C)c(F)cc6[nH]ncc56)c(C5CCC5)cc5c(N6C[C@@H]7C[C@H]6CN7)nc(O[C@H]6C[C@H](OC)C6)nc45)cc3)nn2)[C@H](C)O)cc1` ) is < 10 nM

# IC50 (molecule: `CCn1nccc1-c1cc(F)c([C@@H](NC(=O)[C@@H]2C[C@@H](O)CN2C(=O)[C@H](C(C)C)n2cc(-c3ccc(COc4c(-c5c(C)c(F)cc6[nH]ncc56)c(C5CC5)cc5c(N6C[C@@H]7C[C@H]6CN7)nc(O[C@H]6C[C@H](OC)C6)nc45)cc3)nn2)[C@H](C)O)c(F)c1` ) is 10 to 100 nM
